Tested on: PC-3 prostate
Test: NCI tumour cell line growth inhibition, 48 h
Measured TGI of individual entries

These recorded examples may help you get a feel for the data.
CC1=C(C(=O)Nc2ccc(Cl)c(Cl)c2)C(c2cccc(Cl)c2)NC(=O)N1 (centres undefined) = > 50 µM
O=C(O)CCCSc1ccccc1 = > 100 µM
COc1ccc2nccc(SCC(=O)O)c2c1 = > 100 µM

Continue with the compound presented below.
Query block: Tell me the measured TGI of O=C1c2ccccc2-c2oc(=O)c3ccccc3c21 , please.
Result block: > 100 µM

====

System: TK-10 renal
Assay: NCI tumour cell line growth inhibition, 48 h
EXPERIMENTAL ENDPOINT: TGI

The examples below pair each entry with its known result.
C[C@]12CC[C@@H]3c4cc(-c5ccc(F)cc5)c(O)cc4CC[C@H]3[C@@H]1CC[C@@H]2O = 21.7 µM
O=C1CCCCCCCCCCC1CCCCCBr (configuration not stated) = > 100 µM
CCO/C=N\c1c(C#N)c(-c2ccc(Cl)cc2)cn1-c1ccc(C)cc1 = > 100 µM
O=C1CC(=O)N(C(=O)c2nn(-c3ccc(Cl)cc3)cc2O)N1 = > 65.2 µM
O=C1O/C(=C\c2ccccc2)N(c2ccccc2)C1=O = > 100 µM

Query block: Name the reported TGI value associated with the compound O=C(CC(C(=O)c1cccs1)c1cccs1)c1ccsc1 (configuration not stated)
Result block: > 100 µM

Query block: Entry Nc1nc(N)c2cc(-c3ccccc3)cnc2n1 has what TGI?
Result block: 29.9 µM

====

Test system: 786-0 renal
Experiment: NCI tumour cell line growth inhibition, 48 h
Class satisfied: TGI at least 4 µM. Class not satisfied: TGI below 4 µM.

CCN(Cc1ccccc1)c1ccc(CO)c(Cl)c1 = satisfied
COC(=O)c1cc2c3ccccc3n3c(=O)c4cc5ccccc5nc4c(n1)c23 = satisfied

Query block: I'd appreciate it if you could say whether O=S(=O)(c1ccccc1)C(c1ccc2ccccc2n1)S(=O)(=O)c1ccccc1 has TGI at least equal to 4 µM.
Result block: satisfied

Query block: Given the entry COc1ccc(-c2oc(=O)ccc2-c2cc(OC)c(OC)c(OC)c2)cc1O , answer whether its TGI meets or surpasses 4 µM.
Result block: satisfied

====

Tested on: SW-620 colon
Assay: NCI tumour cell line growth inhibition, 48 h
Form field: TGI (one value per entry).

# example entries with known answers
CCN(Cc1ccccc1)c1ccc(CO)c(Cl)c1 = > 100 µM
COc1ccc(C2SCC(=O)N2NC(=O)c2ccncc2)cc1F (stereo not drawn) = > 100 µM
CCCC[C@H]1[C@@H](OCOc2ccccc2)COC(=O)N1[C@H](C)c1ccccc1 = > 100 µM
CCOC(=O)/C(=C\c1ccc(N(CCC#N)CCC#N)cc1)NC(=O)c1cc([N+](=O)[O-])ccc1Cl = > 100 µM
C1CCCCC2(CCCCCCCCC3(CCC1)OCCO3)OCCO2 = > 100 µM
C=C1C(=O)O[C@H]2[C@H]1CC/C(COC(=O)c1cc3ccccc3o1)=C\CC[C@@]1(C)O[C@@H]21 = 2.49 µM

Query block: Give its TGI value. Item: N#CC(C#N)=C/C=C(\Sc1c(Cl)c(Cl)nc(Cl)c1Cl)c1ccc(Cl)cc1
Result block: 25.9 µM

Query block: TGI lookup needed for CCOC(=O)NC1C2CC(=O)OC(O2)C1OC(C)=O (stereo not drawn) , thanks.
Result block: > 100 µM

====

Tested on: MDA-MB-231 breast
Assay: NCI tumour cell line growth inhibition, 48 h
*1 amine or outer side, *2 acyl side, *3 side chain or, on linkers, in order; H or OH if unused. Where a SMILES comes first, the peptide text is derived from it. Bridges are numbered along the chain shown (N, C = ends). Roman numbers before positions name the chains, in order. [ ]: non-standard residue; d: D form. Actinocin(9to1) = Cc1c2oc3c(C)ccc(C(=O)[*:1])c3nc-2c(C(=O)[*:2])c(N)c1=O; NMeT = CN[CH](C(=O)O)[CH](C)O; Sar = CNCC(=O)O
EXPERIMENTAL ENDPOINT: TGI

Answered examples (5):
Cc1c2oc3c(C)ccc(C(=O)NC4C(=O)NC(C(C)C)C(=O)N5CCCC5C(=O)N(C)CC(=O)N(C)C(C(C)O)C(=O)OC4C)c3nc-2c(C(=O)NC2C(=O)NC(C(C)C)C(=O)N3CCCC3C(=O)N(C)CC(=O)N(C)C(C(C)O)C(=O)OC2C)c(N)c1=O (stereo unspecified) (I: TVP[Sar][NMeT] / II: TVP[Sar][NMeT]; ester I:1-I:C, II:1-II:C; linker I:N-II:N via Actinocin(9to1); configuration not given here) = > 69.9 µM
COc1cc2ncn(-c3cc(O[C@@H](C)c4ccccc4Cl)c(C(N)=O)s3)c2cc1OC = > 25 µM
COC(=O)c1cc2c3ccccc3n3c(=O)c4cc5ccccc5nc4c(n1)c23 = > 100 µM
CCCCCCc1ccc(C(=O)NO)cc1 = > 100 µM
N#Cc1c(=O)c2ccccc2n2c1[nH]c1ccccc12 = > 100 µM

Proceeding to the next molecule to report its TGI.
Query block: I am curious: what TGI value has been reported for COc1cc(C2SCC(=O)N2c2ccc(-n3c(-c4ccccc4)nc4ccccc4c3=O)cc2)cc(OC)c1OC (stereo unspecified) ?
Result block: > 100 µM

====

System: SF-268 CNS
Assay: NCI tumour cell line growth inhibition, 48 h
// reported TGI for each item listed

As a guide, the following entries are already answered.
COc1ccc(/C(=N\NC(=O)C(=O)NN)C(c2ccc(OC)cc2)C2(O)C(=O)Nc3ccccc32)cc1 (centres undefined) = > 100 µM
CC(C)(C)OCC1NC(=O)[C@@H]2Cc3c([nH]c4ccccc34)C(c3ccccc3)N2C1=O (some centres undefined) = > 50 µM
O=c1c2cc(-c3ccccc3)sc2nc2n1N=C(c1ccc(Cl)cc1)CS2 = > 100 µM

Now examine the next entry.
Query block: Which measured TGI value corresponds to Cc1nc2sc(C(=O)Nc3cccc4ccccc34)c(N)c2cc1C(O)c1ccccc1 (centres undefined) ?
Result block: 11.2 µM

====

Collected TGI values appear next to each entry.
Test system: UACC-62 melanoma
Assay: NCI tumour cell line growth inhibition, 48 h

Example molecules with recorded TGI:
O=C1/C(=C/c2ccc(OC(=O)c3ccccc3)cc2)CCC/C1=C\c1ccc(OC(=O)c2ccccc2)cc1 = > 100 µM
C=C1C(=O)OC2C1CCC(C)C1C=CC(=O)C12C (configuration not stated) = 4.11 µM
O=C(O)C1CCCCC1C(=O)Nn1cnnc1 (configuration not stated) = > 100 µM

Query block: Name the recorded TGI for O=C1O[C@H](c2ccccc2)[C@@H]2CC3(CCN12)OCCO3 .
Result block: > 100 µM

Query block: Bench note: what TGI did Nn1c(CCCCCCCCc2nnc(COc3ccc4ccccc4c3O)n2N)nnc1COc1ccc2ccccc2c1O show?
Result block: > 100 µM

Query block: What TGI value was documented for this molecule, CC[C@H](Nc1c(O)c2c(c(O)c1Cl)C(=O)C=CC2=O)C(=O)OC ?
Result block: > 10 µM

Query block: Form field: reported TGI of CCCCCCc1ccc(C(=O)NO)cc1
Result block: 66.6 µM

====

Test system: SN12C renal
Test: NCI tumour cell line growth inhibition, 48 h
EXPERIMENTAL ENDPOINT: TGI

Worked set:
COC(=O)C1=CSC2(S1)C(C(=O)OC)=CSc1c2ssc1=O (stereo not given) = 5.1 µM
O=C(O)NC(c1ccccc1)C(NC(=O)c1ccccc1)c1ccccc1 (stereo not given) = > 100 µM
O=C(CC(C(=O)c1cccs1)c1cccs1)c1ccsc1 (stereo not given) = > 100 µM
CCN(CC)CCCNC(=O)C1COc2cc(-c3cc(=O)c4ccccc4o3)ccc2O1 (stereo not given) = > 100 µM
CCOC(=O)/C(=C\c1ccc(N(CCC#N)CCC#N)cc1)NC(=O)c1cc([N+](=O)[O-])ccc1Cl = > 100 µM

Query block: Please report the recorded TGI for CC(C)[O-].CC(C)[O-].O=C1C=C([O-])C(=O)c2ccccc21.O=C1C=C([O-])C(=O)c2ccccc21.[Ti+4] .
Result block: > 100 µM

====

System: K-562 leukemia
Assay: NCI tumour cell line growth inhibition, 48 h
Some molecules, each annotated with its measured TGI.

# annotated cases, reported TGI shown
O=C1O/C(=C\c2ccccc2)N(c2ccccc2)C1=O = > 100 µM
CC(C)[O-].CC(C)[O-].O=C1C=C([O-])C(=O)c2ccccc21.O=C1C=C([O-])C(=O)c2ccccc21.[Ti+4] = > 100 µM
Nn1c(CCCCCCCCc2nnc(COc3ccc4ccccc4c3O)n2N)nnc1COc1ccc2ccccc2c1O = > 100 µM
CC(C)C[C@H](NC(=O)Cn1ccc(NCc2ccccc2)cc1=O)B(O)O = > 100 µM
O=C1O[C@H](c2ccccc2)[C@@H]2CC3(CCN12)OCCO3 = > 100 µM

Query block: Which value of TGI has been reported for O=c1cc(N2CCN(CCCCCOc3cc(O)c4c(=O)cc(-c5ccccc5)oc4c3)CC2)c2ccccc2o1 in the records?
Result block: > 100 µM

Query block: Which value of TGI has been reported for COc1ccc2c3c([nH]c2c1[N+](=O)[O-])C(C)N(Cc1ccc([N+](=O)[O-])cc1)CC3 (stereo not drawn) in the records?
Result block: 77.1 µM

Query block: What TGI value was documented for this molecule, Nc1nc(Cl)c(/C=N\O)c(NCC2(CO)CCC2)n1 ?
Result block: > 100 µM

Query block: Report TGI for Cc1cc(-c2nc3sccn3c2/C=N/N=C(N)N)c(C)s1 please.
Result block: 39.1 µM

Query block: Field request: TGI | item: Oc1c(Cl)c(Cl)c(O)c(CCNc2ccc3ncccc3c2)c1Cl
Result block: > 100 µM
